Hello, the source for this data is ChEMBL document CHEMBL4613273, in case you need it.

# assay-remarks: Bioavailability (0 to t) in Sprague-Dawley rat plasma at 10 mg/kg, ig measured over 1 to 300 mins post dose by LC-MS/MS analysis
# Format: ADME, organism-based
# experimental-parameters: po
attribute-measured: bioavailability (%)
Number in %, nothing else.

Need bioavailability, item O=C(Nc1cccc(Cl)c1)C1CCN(C(=O)c2ccc3ccccc3c2)CC1
12.2

----------
# assay-remarks: Cmax in Sprague-Dawley rat brain at 10 mg/kg, ig measured over 5 to 720 mins post dose by LC-MS/MS analysis
attribute-measured: Cmax (ng/mL)
Number in ng/mL, nothing else.

Need Cmax, item O=C(Nc1cccc(Cl)c1)C1CCN(C(=O)c2ccc3ccccc3c2)CC1
16.6
